# System: 786-0
# measurement_notes: NCI tumour cell line growth inhibition, 48 h
Calls of active or inactive are those of the source. Rule as the data show it: active = GI50 up to about 1.1 µM and inactive = higher.
Thanks in advance; please answer with one of these: 1 (active), 0 (inactive)

COC(=O)/N=[N+](\[O-])C(c1ccc(OC)cc1)C1CCCCC1 (stereo not given)
0
OC(CC(O)(C(F)(F)Cl)C(F)(F)Cl)c1ccccc1 (stereo not given)
1
CC1=C(C(=O)CC(=O)C(=O)NC2C3CC4CC(C3)CC2C4)Sc2ccccc2N1 (stereo not given)
0
COc1cc2c(c3c1c(=O)c1ccccc1n3C)C=CC(C)(C)O2
0

Hi, sorry to bother you, what did the test record for CC(C)=CCC(O)[C@](C)(O)[C@H]1[C@H](O)C[C@@]2(C)[C@@H]3CCc4cc(O)c(OC5OC(CO)C(O)C(O)C5O)cc4C3(C)C(=O)C[C@]12C (stereo not given in full) ? 0
